Target: Mu-type opioid receptor (Cavia porcellus)
Sequence (P97266 whole entry): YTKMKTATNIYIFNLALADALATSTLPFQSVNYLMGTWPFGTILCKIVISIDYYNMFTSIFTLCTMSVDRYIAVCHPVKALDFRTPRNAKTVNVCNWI
*1 amine or outer side, *2 acyl side, *3 side chain or, on linkers, in order; H or OH if unused. Where a SMILES comes first, the peptide text is derived from it. Side-chain parts run from the residue outwards. [ ]: non-standard residue; d: D form. N(2-aminoethyl)Phe = O=C([C@H](Cc1ccccc1)N(CCN[*:3])[*:1])[*:2]; X4 = CC(C)C[C@@H](CN([C@@H](CCCN=C(N)N)C(=O)[*:2])[*:1])N[*:3]; X1 = CC(C)C[C@@H](C(=O)[*:2])N(C[C@H](Cc1ccccc1)N[*:3])[*:1]
The threshold is 9 nM. Values of IC50 beneath it are tagged true (1); values meeting or exceeding it are tagged false (0).

molecule	class
CC[C@H](C)[C@H](NC(=O)[C@H](CCCN=C(N)N)NC(=O)[C@H](CCCN=C(N)N)NC(=O)[C@H](CC(C)C)NC(=O)[C@H](Cc1ccccc1)NC(=O)CNC(=O)CNC(=O)[C@@H](N)Cc1ccc(O)cc1)C(=O)N[C@@H](CCCCN)CN1CCC[C@H]1C(=O)N[C@@H](CCCCN)C(N)=O	true (1)
CC[C@H](C)[C@H](NC(=O)[C@H](CCCN=C(N)N)NC(=O)[C@H](CCCN=C(N)N)NC(=O)[C@H](CC(C)C)NC(=O)[C@H](Cc1ccccc1)NC(=O)CNC(=O)CNC[C@@H](N)Cc1ccc(O)cc1)C(=O)N[C@@H](CCCN=C(N)N)C(=O)N1CCC[C@H]1C(=O)N[C@@H](CCCCN)C(N)=O	false (0)
CC[C@H](C)[C@H](NC(=O)[C@H](CCCN=C(N)N)NC(=O)[C@H](CCCN=C(N)N)NC(=O)[C@H](CC(C)C)NC(=O)[C@H](Cc1ccccc1)NCCNC(=O)CNC(=O)[C@@H](N)Cc1ccc(O)cc1)C(=O)N[C@@H](CCCN=C(N)N)C(=O)N1CCC[C@H]1C(=O)N[C@@H](CCCCN)C(N)=O (H-[N(2-aminoethyl)Phe]([Gly-Tyr])LRRIRPK-NH2)	false (0)
CC[C@H](C)[C@H](NC(=O)[C@H](CCCN=C(N)N)NC(=O)[C@H](CCCN=C(N)N)NC(=O)[C@H](CC(C)C)NC[C@H](Cc1ccccc1)NC(=O)CNC(=O)CNC(=O)[C@@H](N)Cc1ccc(O)cc1)C(=O)N[C@@H](CCCN=C(N)N)C(=O)N1CCC[C@H]1C(=O)N[C@@H](CCCCN)C(N)=O (H-[X1]([Gly-Gly-Tyr])RRIRPK-NH2)	false (0)
CC[C@H](C)[C@@H](CN[C@@H](CCCN=C(N)N)C(=O)N1CCC[C@H]1C(=O)N[C@@H](CCCCN)C(N)=O)NC(=O)[C@H](CCCN=C(N)N)NC(=O)[C@H](CCCN=C(N)N)NC(=O)[C@H](CC(C)C)NC(=O)[C@H](Cc1ccccc1)NC(=O)CNC(=O)CNC(=O)[C@@H](N)Cc1ccc(O)cc1	true (1)
CC[C@H](C)[C@H](NC(=O)[C@H](CCCN=C(N)N)NC(=O)[C@H](CCCN=C(N)N)NC[C@H](CC(C)C)NC(=O)[C@H](Cc1ccccc1)NC(=O)CNC(=O)CNC(=O)[C@@H](N)Cc1ccc(O)cc1)C(=O)N[C@@H](CCCN=C(N)N)C(=O)N1CCC[C@H]1C(=O)N[C@@H](CCCCN)C(N)=O (H-[X4]([Phe-Gly-Gly-Tyr])RIRPK-NH2)	true (1)
